Reference source for all entries: patent US20250304620A1

# Tested on: Methicillin-resistant Staphylococcus aureus (MRSA)
# Format: in vivo, ICR mice
# setup-conditions: topical formulation 5 mg/mL, 0.1 mL twice a day for 4 days, mouse back skin infection
# Experimental: Both female and male ICR mice were used in the test, half of the female and male mice were taken and randomly assigned into groups, with 10 mice in each group, and kept in separate cages. The mice were divided into a blank group, a model group, a positive control Methicillin group, and topical formulation groups of AMPs LV-1 to LV-30. […] On the day following the final administration, skin from the infected sites of each group was aseptically collected, and an antibacterial rate was calculated.
Non-standard residues stand in square brackets, D forms with d. PEG2000 = polyethylene glycol 2000, conjugated to the N-terminus; PEG4000 = polyethylene glycol 4000, conjugated to the C-terminus; PEG200 = polyethylene glycol 200, conjugated to the C-terminus; PEG500 = polyethylene glycol 500, conjugated to the C-terminus; 2Nal = N[C@@H](Cc1ccc2ccccc2c1)C(=O)O; PEG1000 = polyethylene glycol 1000
endpoint-name: Inhibition rate against Methicillin-resistant Staphylococcus aureus (%)

[
  {
    "substance": "Ac-RKLLXRLKXRK-PEG500 [LV-27] (Ac-RKLL[2Nal]RLK[2Nal]RK-PEG500) [polyethylene glycol 500 conjugated to C-terminal; X=3-(2-naphthyl)-alanine]",
    "test-value": 88.02
  },
  {
    "substance": "Ac-RKLLXRLKXRK-PEG200 [LV-26] (Ac-RKLL[2Nal]RLK[2Nal]RK-PEG200) [polyethylene glycol 200 conjugated to C-terminal; X=3-(2-naphthyl)-alanine]",
    "test-value": 87.56
  },
  {
    "substance": "PEG2000-RKLLXRLKXRK-NH2 [LV-29] (PEG2000-RKLL[2Nal]RLK[2Nal]RK-NH2) [polyethylene glycol 2000 conjugated to N-terminal; X=3-(2-naphthyl)-alanine]",
    "test-value": 88.16
  },
  {
    "substance": "Ac-RKLLXRLKXRK-PEG4000 [LV-30] (Ac-RKLL[2Nal]RLK[2Nal]RK-PEG4000) [polyethylene glycol 4000 conjugated to C-terminal; X=3-(2-naphthyl)-alanine]",
    "test-value": 88.93
  },
  {
    "substance": "Ac-RKLLXRLKXRK-PEG1000 [LV-28] (Ac-RKLL[2Nal]RLK[2Nal]RK-PEG1000) [polyethylene glycol 1000 conjugated to C-terminal; X=3-(2-naphthyl)-alanine]",
    "test-value": 88.66
  }
]

----------
# Test system: Pseudomonas aeruginosa ATCC 27853
# assay-text: Injectable formulations on mice infected with peritonitis
# Type: in vivo, ICR mice
# setup-conditions: 5 mg/kg via tail vein, twice a day for 3 days, n = 10
# Method: Both female and male ICR mice were used in the test, half of the female and male mice were taken and randomly assigned into groups, with 10 mice in each group, and kept in separate cages. The mice were divided into a blank control group, a negative control group, a positive control Levofloxacin group, and AMPs LV-1 to LV-30 groups. […] The death of mice in each group was observed, and survival time of the mice was recorded. […]
Non-standard residues stand in square brackets, D forms with d. Residues, ends and D or L forms follow the SMILES beside them. d2Nal = N[C@H](Cc1ccc2ccccc2c1)C(=O)O
Listed here: items and their measured Number of mice that died on each day after infection: day 5.
endpoint-name: Number of mice that died on each day after infection: day 5

[
  {
    "compound": "CC(=O)N[C@H](CCCCN)C(=O)N[C@H](CCCCN)C(=O)N[C@H](CC(C)C)C(=O)N[C@H](CC(C)C)C(=O)N[C@H](Cc1ccc2ccccc2c1)C(=O)N[C@H](CCCCN)C(=O)N[C@H](CC(C)C)C(=O)N[C@H](CCCCN)C(=O)N[C@H](Cc1ccc2ccccc2c1)C(=O)N[C@H](CCCCN)C(=O)N[C@H](CCCCN)C(N)=O [LV-17] (Ac-[dK][dK][dL][dL][d2Nal][dK][dL][dK][d2Nal][dK][dK]-NH2)",
    "test-value": "0 Mouse"
  },
  {
    "compound": "CC(=O)N[C@H](CCCCN)C(=O)N[C@H](CCCCN)C(=O)N[C@H](CC(C)C)C(=O)N[C@H](CC(C)C)C(=O)N[C@H](Cc1ccc2ccccc2c1)C(=O)N[C@H](CCCNC(=N)N)C(=O)N[C@H](CC(C)C)C(=O)N[C@H](CCCCN)C(=O)N[C@H](Cc1ccc2ccccc2c1)C(=O)N[C@H](CCCNC(=N)N)C(=O)N[C@H](CCCCN)C(N)=O [LV-19] (Ac-[dK][dK][dL][dL][d2Nal][dR][dL][dK][d2Nal][dR][dK]-NH2)",
    "test-value": "0 Mouse"
  }
]
